# Tested on: Saccharomyces cerevisiae
# protocol_notes: protein stability index of tFT-peptide fusion (C-terminal peptide) (PSI (0-1 scale)); higher = more stable (slower turnover)
# test_parameters: genetic background: wild type; temperature: 30 C
Outcome label depends on protein stability index relative to 0.7: at/above gives t, below gives f.

Solved cases (10 shown):
RDFFFKNVCVKM [TBS1 C-terminal 12 aa]: f
FLVLKIIKALLW [MTC4 C-terminal 12 aa]: f
AINYIGNIRRNE [ACO2 C-terminal 12 aa]: t
DDAKDSNNSSLR [WSC2 C-terminal 12 aa]: t
LCILRIVGVANF [YER039C-A C-terminal 12 aa]: f
AIWIFYIDFRVH [YCL021W-A C-terminal 12 aa]: f
QTQLCKRKKKLT [VIK1 C-terminal 12 aa]: f
STTIRAINALYS [HSP32 C-terminal 12 aa]: f
DYWRKRGISSVY [ECM38 C-terminal 12 aa]: t
QILLDKLNAVKK [HIT1 C-terminal 12 aa]: f

Could you please find out whether SDDNNDENMDLD [SSE2 C-terminal 12 aa] has protein stability index that meets 0.7 or exceeds it? f

Same for EKKYSNNTNAIQ [CTI6 C-terminal 12 aa] f

Same for GRNKIYILFNVL [YMR030W-A C-terminal 12 aa] f

Same for SKKNVLYQKKNN [RTT107 C-terminal 12 aa] f

Same for PFKERAVFLLVL [YDR524W-C C-terminal 12 aa] f

Same for IGDFFKNLNMAK [NUP159 C-terminal 12 aa] t

Same for GFIRGSNKFAEV [SMC3 C-terminal 12 aa] f

Same for RELWDEEKEIVL [KES1 C-terminal 12 aa] t

Same for QEFVCFLFWPLT [YOR335W-A C-terminal 12 aa] f

---

# Tested on: Saccharomyces cerevisiae
# protocol_notes: protein stability index of tFT-peptide fusion (C-terminal peptide) (PSI (0-1 scale)); higher = more stable (slower turnover)
# test_parameters: genetic background: wild type; temperature: 30 C
Let's look at some sequences and their measured protein stability index.
Keep it simple and answer with nothing but the number.

Use the examples below as a reference point.
LFLVFIGLFFLT: 0.413
LVVFLRFFLRVL: 0.199
VYLVVLYLRYFA: 0.227

What value of protein stability index has been recorded for this entry: VLLAGRLEEGGE 0.65

Same for KKEKQKKKIKTK 0.703

Same for SFLACFVLAFFC 0.372

Same for NSALQELNKAVG 0.625

Same for GGRGWVGEMGGR 0.784

Same for GTEKESRRKREQ 0.698

Same for KICHTKKKNKKK 0.769

Same for RLLPCATPHPDL 0.647

Same for VVNFLVFRFFCI 0.285

Same for PSLLSMHSFSLC 0.68

Same for GKKYDEAQLRKG 0.709

Same for YTLPVHPAFVFP 0.683

Same for SPPLCAPPHPPA 0.679

Same for NGREHHLESSYN 0.654

Same for GVRGLLAGGGVW 0.709

Same for PPMALPELPLFP 0.738

Same for LCPLPPPTVPLP 0.742

Same for NQAWYFVRLAGD 0.776

Same for TARRGAARSSQL 0.695

Same for PPTCRLQPYSRN 0.759

Same for SRSPPRSGVPPL 0.716

---

# System: Saccharomyces cerevisiae
# protocol_notes: protein stability index of tFT-peptide fusion (C-terminal peptide) (PSI (0-1 scale)); higher = more stable (slower turnover)
# test_parameters: genetic background: das1 deletion; temperature: 30 C
observation_type: protein stability index
Keep it simple and answer with nothing but the number.

Use the examples below as a reference point.
VIKQQNHQTTKI [HKR1 C-terminal 12 aa]: 0.68
RKESSGGCCIIC [RAS1 C-terminal 12 aa]: 0.738
VRLRGRKRSMLG [BUD32 C-terminal 12 aa]: 0.701

What value of protein stability index has been recorded for this entry: KPDSTAVRNEDE [YNR065C C-terminal 12 aa] 0.7

---

# Tested on: Saccharomyces cerevisiae
# protocol_notes: protein stability index of tFT-peptide fusion (C-terminal peptide) (PSI (0-1 scale)); higher = more stable (slower turnover)
# test_parameters: genetic background: das1 deletion; temperature: 30 C
observation_type: protein stability index
Keep it simple and answer with nothing but the number.

PVIKKSKKCAIL [CDC42 C-terminal 12 aa]: 0.757
YSSRRWRLDTHD [RTC4 C-terminal 12 aa]: 0.763
GAAVAAGVAFLF [YDR524C-B C-terminal 12 aa]: 0.717
TGTSNSVLVIIT [YPL136W C-terminal 12 aa]: 0.677
RREKRNKALKER [CGR1 C-terminal 12 aa]: 0.706

Query the reported protein stability index for Saccharomyces cerevisiae; item: ADIMEKVHKWFA [PSE1 C-terminal 12 aa] 0.689

Same for TNDRLQSILHDL [MEF2 C-terminal 12 aa] 0.715

Same for SDDQILREFLYS [IRE1 C-terminal 12 aa] 0.726

---

# Test system: Saccharomyces cerevisiae
# protocol_notes: protein stability index of tFT-peptide fusion (C-terminal peptide) (PSI (0-1 scale)); higher = more stable (slower turnover)
# test_parameters: genetic background: wild type; temperature: 30 C
observation_type: protein stability index
Keep it simple and answer with nothing but the number.

Use the examples below as a reference point.
LSNLQPPISVPL: 0.647
LRCLTIILYSMV: 0.549
GLNCGVCFGGGV: 0.701
MSCILFCCLVPF: 0.475

Below: the item to evaluate.
What value of protein stability index has been recorded for this entry: PSSSYLSCLPSW 0.703

---

# Tested on: Saccharomyces cerevisiae
# protocol_notes: protein stability index of tFT-peptide fusion (C-terminal peptide) (PSI (0-1 scale)); higher = more stable (slower turnover)
# test_parameters: genetic background: wild type; temperature: 30 C
Let's look at some sequences and their measured protein stability index.
Keep it simple and answer with nothing but the number.

Use the examples below as a reference point.
SRFLKRKSHHDK [SEC1 C-terminal 12 aa]: 0.723
FGKYLPLNYPSE [ASG1 C-terminal 12 aa]: 0.671
LERILHEMHPPA [EOS1 C-terminal 12 aa]: 0.726

What value of protein stability index has been recorded for this entry: FINKIYHQKVNL [TMN3 C-terminal 12 aa] 0.781

Same for GTMKVDSWEPVD [ACH1 C-terminal 12 aa] 0.683

Same for ICAWLLFFETIH [BST1 C-terminal 12 aa] 0.521

Same for NLSEAIHDNNGS [NNK1 C-terminal 12 aa] 0.709

Same for RRKLKGRWFLSH [MRX14 C-terminal 12 aa] 0.562

Same for EAETPGIIDKHQ [SIS2 C-terminal 12 aa] 0.677

Same for TKISIRKAPKFF [MRPL31 C-terminal 12 aa] 0.656

Same for SRIELELKNIGL [ECM29 C-terminal 12 aa] 0.762

Same for DDNEPDEEANRA [RXT2 C-terminal 12 aa] 0.666

Same for ASPTCTPQNPCV [CAB4 C-terminal 12 aa] 0.735

Same for CTSCGYKFRTNN [RPA12 C-terminal 12 aa] 0.252

Same for GPYWKRVLDFWC [GNP1 C-terminal 12 aa] 0.739

Same for YRDDPNQKNYKD [MSS4 C-terminal 12 aa] 0.749

Same for TGTSNSVLVIIT [YPL136W C-terminal 12 aa] 0.684

Same for IWKEVKRHQDFA [ATG20 C-terminal 12 aa] 0.734

---

# Test system: Saccharomyces cerevisiae
# protocol_notes: protein stability index of tFT-peptide fusion (C-terminal peptide) (PSI (0-1 scale)); higher = more stable (slower turnover)
# test_parameters: genetic background: wild type; temperature: 30 C
Outcome label depends on protein stability index relative to 0.7: at/above gives yes, below gives no.

Solved cases (4 shown):
TNKRKNIRTKQR: no
TKWAISRLHNSA: no
RRLQGKWIWQNH: yes
LHDICADRSSIL: yes

In the following, a different sequence is considered.
Could you please find out whether SHVPLAKLSLFP has protein stability index that meets 0.7 or exceeds it? yes

---

Let's look at some sequences and their measured protein stability index.
# Test system: Saccharomyces cerevisiae
# protocol_notes: protein stability index of tFT-peptide fusion (C-terminal peptide) (PSI (0-1 scale)); higher = more stable (slower turnover)
# test_parameters: genetic background: wild type; temperature: 30 C
Keep it simple and answer with nothing but the number.

WFICRMLSKVTL [YNR003W-A C-terminal 12 aa]: 0.595

What value of protein stability index has been recorded for this entry: PTFLIPLRLCFV [EMA19 C-terminal 12 aa] 0.336

Same for IYKLEYYLLTMQ [YOR199W C-terminal 12 aa] 0.526

Same for AMLKPSSKEGSP [COQ10 C-terminal 12 aa] 0.718

Data provenance is the supplement of paper PMC10724198.
